B1: COX4I1 (parent)
chain: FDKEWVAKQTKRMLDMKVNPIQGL

- Variants of: B1
- EXPERIMENT NOTES: protein stability index of a GFP-peptide fusion (GPS, HEK-293T) (PSI 1-6); higher = more stable;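 also: lentivirally expressed fusions sorted by FACS into six bins by GFP to DsRed ratio, PSI derived from sequencing read proportions per bin multiplied by bin number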
- STUDY CONDITIONS: c terminus: a fixed tail appended
// label = Condition met if protein stability index is not less than 2, otherwise Condition not met

{"columns": ["RESIDUE CHANGE", "ASSIGNED CLASS"],
 "data": [
  ["A7Q", "Condition not met"],
  ["K11E", "Condition not met"],
  ["A7K", "Condition met"],
  ["A7I", "Condition not met"],
  ["N19K", "Condition not met"],
  ["L24E", "Condition met"],
  ["R12N", "Condition not met"],
  ["D2C", "Condition met"],
  ["M13L", "Condition met"],
  ["R12F", "Condition met"],
  ["D15C", "Condition not met"],
  ["W5T", "Condition met"],
  ["K3N", "Condition met"],
  ["K8V", "Condition not met"],
  ["E4S", "Condition not met"],
  ["E4L", "Condition not met"],
  ["M13G", "Condition not met"],
  ["K17S", "Condition not met"],
  ["L24Q", "Condition met"],
  ["K3S", "Condition met"],
  ["K3M", "Condition not met"],
  ["Q9N", "Condition not met"]
]}

Data origin, for the record: the supplement of paper PMC10567573
